MEASURED_ON: recombinant human PAD2 (human, UniProt Q9Y2J8 1-665)
Sequence (Q9Y2J8 whole entry): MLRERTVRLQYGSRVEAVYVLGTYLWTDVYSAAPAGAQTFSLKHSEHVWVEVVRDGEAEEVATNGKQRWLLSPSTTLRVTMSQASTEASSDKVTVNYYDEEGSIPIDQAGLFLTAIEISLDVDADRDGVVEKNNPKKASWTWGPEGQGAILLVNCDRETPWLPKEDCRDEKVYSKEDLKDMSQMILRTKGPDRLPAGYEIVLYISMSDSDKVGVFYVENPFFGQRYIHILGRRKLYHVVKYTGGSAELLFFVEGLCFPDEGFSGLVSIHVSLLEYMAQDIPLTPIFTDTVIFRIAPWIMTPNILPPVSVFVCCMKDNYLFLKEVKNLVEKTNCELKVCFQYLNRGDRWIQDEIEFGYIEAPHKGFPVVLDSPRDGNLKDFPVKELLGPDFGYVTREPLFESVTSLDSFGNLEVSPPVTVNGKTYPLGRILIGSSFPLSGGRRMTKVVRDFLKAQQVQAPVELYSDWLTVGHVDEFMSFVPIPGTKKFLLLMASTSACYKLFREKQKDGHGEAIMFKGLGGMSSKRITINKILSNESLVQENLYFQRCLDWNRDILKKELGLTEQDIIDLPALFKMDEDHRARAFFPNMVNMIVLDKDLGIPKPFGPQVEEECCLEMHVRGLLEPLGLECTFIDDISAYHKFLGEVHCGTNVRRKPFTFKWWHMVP
TEST_NAME: cell-based or functional assay
Numbered stars: 1 amine (or outer) side, 2 acyl side, 3 side chain; on linkers, the order of the positions; unused ones are H or OH. Square brackets hold non-standard residues; d marks the D form. Orn(CA) = ornithine chloroamidine, O(CA), N=C(CCl)NCCC[C@H](N[*:1])C(=O)[*:2]
OBSERVATION_TYPE: conversion of 0708-30 by PAD2, 100 µM inhibitor (%)
Answer format: numeric, % implied, no suffix.

Task: Using known records, supply conversion of 0708-30 by PAD2, 100 µM inhibitor for Ac-FFDSHKWH[Orn(CA)]DFFYSD-NH2 (SMILES CC(=O)N[C@@H](Cc1ccccc1)C(=O)N[C@@H](Cc1ccccc1)C(=O)N[C@@H](CC(=O)O)C(=O)N[C@@H](CO)C(=O)N[C@@H](Cc1c[nH]cn1)C(=O)N[C@@H](CCCCN)C(=O)N[C@@H](Cc1c[nH]c2ccccc12)C(=O)N[C@@H](Cc1c[nH]cn1)C(=O)N[C@@H](CCCNC(=N)CCl)C(=O)N[C@@H](CC(=O)O)C(=O)N[C@@H](Cc1ccccc1)C(=O)N[C@@H](Cc1ccccc1)C(=O)N[C@@H](Cc1ccc(O)cc1)C(=O)N[C@@H](CO)C(=O)N[C@@H](CC(=O)O)C(N)=O) [0741-02CA]
Result: 18
